Source of measurements: paper PMC9482650

Answer each item with its documented pKd.
target: PTPN3, P26045; experiment: holdup assay; parameters: key: below the threshold = too weak to quantify, mostly under pKd 3.1 to 4; conditions: plain residues with an end cap or a label only (N-terminal biotin on a linker: ahx)
Sequence (P26045 505-587): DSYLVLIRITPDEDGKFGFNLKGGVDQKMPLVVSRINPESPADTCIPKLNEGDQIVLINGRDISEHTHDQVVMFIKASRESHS
// response body must contain only the number

*Q* Consider the binder AKPQPVDSWV [ARVCF, O00192] and give its measured pKd.
*A* 4.94

*Q* Consider the binder KEYDDELTFF [USH1C, Q9Y6N9] and give its measured pKd.
*A* 3.71
